# Test system: hTERT-HMEC
# testMethodNotes: percentage of EdU-negative (G0-arrested) nuclei per well, 72 h; higher = more G0 arrest
# experimentalParameters: protein concentration 0.03125 µM; reference: sequence is the full UniProt precursor, the tested protein was the secreted form or ectodomain

macromoleculeSequence: MFIKVMFGAGCSVLVNTSCRLVNLTAHLRQKAGLPPDATIALLAEDGNLVSLEEDLKEGASRAQTMGNSLLKERAIYVLVRIIKGEDMASTRYESLLENLDDHYPELAEELRRLSGLSSVGHNWRKRMGTRRGRHEQSPTSRPRKGPD [Q8WYQ4]
percentage of EdU-negative, %: 5.45

macromoleculeSequence: MALSFSLLMAVLVLSYKSICSLGCDLPQTHSLGNRRALILLAQMGRISHFSCLKDRHDFGFPEEEFDGHQFQKAQAISVLHEMIQQTFNLFSTEDSSAAWEQSLLEKFSTELYQQLNDLEACVIQEVGVEETPLMNEDSILAVRKYFQRITLYLTEKKYSPCAWEVVRAEIMRSLSFSTNLQKRLRRKD
percentage of EdU-negative, %: 9.16

macromoleculeSequence: MTPHRLLPPLLLLLALLLAASPGGALARCPGCGQGVQAGCPGGCVEEEDGGSPAEGCAEAEGCLRREGQECGVYTPNCAPGLQCHPPKDDEAPLRALLLGRGRCLPARAPAVAEENPKESKPQAGTARPQDVNRRDQQRNPGTSTTPSQPNSAGVQDTEMGPCRRHLDSVLQQLQTEVYRGAQTLYVPNCDHRGFYRKRQCRSSQGQRRGPCWCVDRMGKSLPGSPDGNGSSSCPTGSSG
percentage of EdU-negative, %: 4.84

macromoleculeSequence: MSLRLDTTPSCNSARPLHALQVLLLLSLLLTALASSTKGQTKRNLAKGKEESLDSDLYAELRCMCIKTTSGIHPKNIQSLEVIGKGTHCNQVEVIATLKDGRKICLDPDAPRIKKIVQKKLAGDESAD
percentage of EdU-negative, %: 5.49

----------
Recorded percentage of EdU-negative for the following sequences
# Tested on: hTERT-HMEC;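 also: secreted proteins added to cultured cells, EdU pulse at the end, nuclei found by Hoechst imaging, EdU status from nuclear versus surrounding ring intensity ratio, PBS as neutral control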
# testMethodNotes: percentage of EdU-negative (G0-arrested) nuclei per well, 72 h; higher = more G0 arrest
# experimentalParameters: protein concentration 0.257143 µM; reference: sequence is the full UniProt precursor, the tested protein was the secreted form or ectodomain
measurementKind: percentage of EdU-negative (%)

macromoleculeSequence: MQLQASLSFLLILTLCLELRSELARDTIKDLLPNVCAFPMEKGPCQTYMTRWFFNFETGECELFAYGGCGGNSNNFLRKEKCEKFCKFT
measurementUnit: %
valueMeasured: 4.94
//
macromoleculeSequence: MKSLTWILGLWALAACFTPGESQRGPRGPYPPGPLAPPPPPCFPFGTGFVPPPHPPPYGPGRFPPPLSPPYGPGRIPPSPPPPYGPGRIQSHSLPPPYGPGYPQPPSQPRPYPPGPPFFPVNSPTDPALPTPAP
measurementUnit: %
valueMeasured: 7.43
//
macromoleculeSequence: MKKSGVLFLLGIILLVLIGVQGTPVVRKGRCSCISTNQGTIHLQSLKDLKQFAPSPSCEKIEIIATLKNGVQTCLNPDSADVKELIKKWEKQVSQKKKQKNGKKHQKKKVLKVRKSQRSRQKKTT
measurementUnit: %
valueMeasured: 6.18
//
macromoleculeSequence: MHLLLFQLLVLLPLGKTTRHQDGRQNQSSLSPVLLPRNQRELPTGNHEEAEEKPDLFVAVPHLVATSPAGEGQRQREKMLSRFGRFWKKPEREMHPSRDSDSEPFPPGTQSLIQPIDGMKMEKSPLREEAKKFWHHFMFRKTPASQGVILPIKSHEVHWETCRTVPFSQTITHEGCEKVVVQNNLCFGKCGSVHFPGAAQHSHTSCSHCLPAKFTTMHLPLNCTELSSVIKVVMLVEECQCKVKTEHEDGHILHAGSQDSFIPGVSA
measurementUnit: %
valueMeasured: 5.44
//
macromoleculeSequence: MKVLLCDLLLLSLFSSVFSSCQRDCLTCQEKLHPALDSFDLEVCILECEEKVFPSPLWTPCTKVMARSSWQLSPAAPEHVAAALYQPRASEMQHLRRMPRVRSLFQEQEEPEPGMEEAGEMEQKQLQKRFGGFTGARKSARKLANQKRFSEFMRQYLVLSMQSSQRRRTLHQNGNV
measurementUnit: %
valueMeasured: 5.6
//
macromoleculeSequence: MKPWILLLVMFISGVVMLLPVLGSFWNKDPFLDMIRETEQCWVQPPYKYCEKRCTKIMTCVRPNHTCCWTYCGNICLDNEEPLKSMLNP [Q8NEX5]
measurementUnit: %
valueMeasured: 5.1
//
macromoleculeSequence: MKSLTWILGLWALAACFTPGESQRGPRGPYPPGPLAPPQPFGPGFVPPPPPPPYGPGRIPPPPPAPYGPGIFPPPPPQP
measurementUnit: %
valueMeasured: 6.25
//
macromoleculeSequence: MAAARLCLSLLLLSTCVALLLQPLLGAQGAPLEPVYPGDNATPEQMAQYAADLRRYINMLTRPRYGKRHKEDTLAFSEWGSPHAAVPRELSPLDL
measurementUnit: %
valueMeasured: 5.93
//
macromoleculeSequence: MPGPWLLLALALTLNLTGVPGGRAQPEAAQQEAVTAAEHPGLDDFLRQVERLLFLRENIQRLQGDQGEHSASQIFQSDWLSKRQHPGKREEEEEEGVEEEEEEEGGAVGPHKRQHPGRREDEASWSVDVTQHKRQHPGRRSPWLAYAVPKRQHPGRRLADPKAQRSWEEEEEEEEREEDLMPEKRQHPGKRALGGPCGPQGAYGQAGLLLGLLDDLSRSQGAEEKRQHPGRRAAWVREPLEE
measurementUnit: %
valueMeasured: 5.31
//
macromoleculeSequence: MGRDLRPGSRVLLLLLLLLLVYLTQPGNGNEGSVTGSCYCGKRISSDSPPSVQFMNRLRKHLRAYHRCLYYTRFQLLSWSVCGGNKDPWVQELMSCLDLKECGHAYSGIVAHQKHLLPTSPPISQASEGASSDIHTPAQMLLSTLQSTQRPTLPVGSLSSDKELTRPNETTIHTAGHSLAAGPEAGENQKQPEKNAGPTARTSATVPVLCLLAIIFILTAALSYVLCKRRRGQSPQSSPDLPVHYIPVAPDSNT [Q9H2A7]
measurementUnit: %
valueMeasured: 4.18
//
macromoleculeSequence: MAPPSVPLVLLLVLLLSLAETPASAPAHRGRGGWTLNSAGYLLGPVLHLPQMGDQDGKRETALEILDLWKAIDGLPYSHPPQPSKRNVMETFAKPEIGDLGMLSMKIPKEEDVLKS [Q9UBC7]
measurementUnit: %
valueMeasured: 6.11
//
macromoleculeSequence: MERVQPLEENVGNAARPRFERNKLLLVASVIQGLGLLLCFTYICLHFSALQVSHRYPRIQSIKVQFTEYKKEKGFILTSQKEDEIMKVQNNSVIINCDGFYLISLKGYFSQEVNISLHYQKDEEPLFQLKKVRSVNSLMVASLTYKDKVYLNVTTDNTSLDDFHVNGGELILIHQNPGEFCVL
measurementUnit: %
valueMeasured: 5.19
//
macromoleculeSequence: MRTQSLLLLGALLAVGSQLPAVFGRKKGEKSGGCPPDDGPCLLSVPDQCVEDSQCPLTRKCCYRACFRQCVPRVSVKLGSCPEDQLRCLSPMNHLCHKDSDCSGKKRCCHSACGRDCRDPARGTAPGCPGQANSDLGSVALHLSWGPTERVHDGRPGALPAGQHYLYQRWFQPSDNHWPADTSLQPIHPWFLLLGVKVHSLSSEEGLCITPVLCTTAIRASHPS [Q8TCV5]
measurementUnit: %
valueMeasured: 5.25
//
macromoleculeSequence: MQKVTLGLLVFLAGFPVLDANDLEDKNSPFYYDWHSLQVGGLICAGVLCAMGIIIVMSAKCKCKFGQKSGHHPGETPPLITPGSAQS
measurementUnit: %
valueMeasured: 4.97
//
macromoleculeSequence: MAPAMESPTLLCVALLFFAPDGVLAVPQKPKVSLNPPWNRIFKGENVTLTCNGNNFFEVSSTKWFHNGSLSEETNSSLNIVNAKFEDSGEYKCQHQQVNESEPVYLEVFSDWLLLQASAEVVMEGQPLFLRCHGWRNWDVYKVIYYKDGEALKYWYENHNISITNATVEDSGTYYCTGKVWQLDYESEPLNITVIKAPREKYWLQFFIPLLVVILFAVDTGLFISTQQQVTFLLKIKRTRKGFRLLNPHPKPNPKNN
measurementUnit: %
valueMeasured: 5.8
//
macromoleculeSequence: MAKDFQDIQQLSSEENDHPFHQGEGPGTRRLNPRRGNPFLKGPPPAQPLAQRLCSMVCFSLLALSFNILLLVVICVTGSQSEGHGGAQLQAELRSLKEAFSNFSSSTLTEVQAISTHGGSVGDKITSLGAKLEKQQQDLKADHDALLFHLKHFPVDLRFVACQMELLHSNGSQRTCCPVNWVEHQGSCYWFSHSGKAWAEAEKYCQLENAHLVVINSWEEQKFIVQHTNPFNTWIGLTDSDGSWKWVDGTDYRHNYKNWAVTQPDNWHGHELGGSEDCVEVQPDGRWNDDFCLQVYRWVCEKRRNATGEVA
measurementUnit: %
valueMeasured: 5.93
//
macromoleculeSequence: MKLSGMFLLLSLALFCFLTGVFSQGGQVDCGEFQDPKVYCTRESNPHCGSDGQTYGNKCAFCKAIVKSGGKISLKHPGKC [Q6UWN8]
measurementUnit: %
valueMeasured: 5.15
